TGT: UniProtKB P48994
Sequence (P48994 1-1124): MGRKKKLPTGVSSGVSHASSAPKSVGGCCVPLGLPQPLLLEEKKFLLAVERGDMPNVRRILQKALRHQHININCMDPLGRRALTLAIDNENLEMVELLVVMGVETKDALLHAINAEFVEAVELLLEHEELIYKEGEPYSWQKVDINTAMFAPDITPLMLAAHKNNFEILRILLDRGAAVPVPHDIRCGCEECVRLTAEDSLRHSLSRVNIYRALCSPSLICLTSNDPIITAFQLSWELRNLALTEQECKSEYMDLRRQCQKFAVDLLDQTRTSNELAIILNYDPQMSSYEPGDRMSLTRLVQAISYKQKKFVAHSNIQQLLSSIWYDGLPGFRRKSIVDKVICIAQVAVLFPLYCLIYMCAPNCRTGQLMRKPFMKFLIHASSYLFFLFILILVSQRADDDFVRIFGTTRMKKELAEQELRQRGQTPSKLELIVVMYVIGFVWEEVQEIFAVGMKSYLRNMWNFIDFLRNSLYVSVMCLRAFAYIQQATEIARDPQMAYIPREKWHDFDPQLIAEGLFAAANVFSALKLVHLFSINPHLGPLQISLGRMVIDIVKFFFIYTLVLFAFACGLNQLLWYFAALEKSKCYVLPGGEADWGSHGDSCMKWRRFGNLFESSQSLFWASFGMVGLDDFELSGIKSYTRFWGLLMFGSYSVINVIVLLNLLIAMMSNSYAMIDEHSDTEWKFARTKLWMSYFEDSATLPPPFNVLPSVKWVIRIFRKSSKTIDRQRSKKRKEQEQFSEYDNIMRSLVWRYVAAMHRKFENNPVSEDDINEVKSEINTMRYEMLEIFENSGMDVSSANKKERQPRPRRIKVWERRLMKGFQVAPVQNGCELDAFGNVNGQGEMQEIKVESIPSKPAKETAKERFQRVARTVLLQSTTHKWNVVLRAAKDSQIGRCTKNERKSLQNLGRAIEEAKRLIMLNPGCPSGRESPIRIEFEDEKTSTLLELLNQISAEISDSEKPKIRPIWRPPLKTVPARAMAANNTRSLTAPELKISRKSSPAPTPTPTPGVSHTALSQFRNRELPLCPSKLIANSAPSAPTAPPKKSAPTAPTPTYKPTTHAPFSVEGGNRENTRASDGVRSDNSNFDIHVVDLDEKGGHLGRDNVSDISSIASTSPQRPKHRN
ASSAY_METHOD_TEXT: Whole cell patch clamp of TRPL channels expressed in S2 cells
Catalogue of compounds with associated IC50
Note: unit mM is implicit; provide only the numeric part.

Asked: Quick one: give measured IC50 for CC1CCC(C(C)C)C(O)C1 (centres unmarked)
Given back: 1.81

// below: IC50 requested for another compound
Asked: Quick one: give measured IC50 for C=C(C)C1CC=C(C)C(O)C1 (mixture of isomers)
Given back: 4.22

----------
TGT: Drosophila TRPL channel (Drosophila melanogaster, UniProt P48994)
Sequence (P48994 1-1124): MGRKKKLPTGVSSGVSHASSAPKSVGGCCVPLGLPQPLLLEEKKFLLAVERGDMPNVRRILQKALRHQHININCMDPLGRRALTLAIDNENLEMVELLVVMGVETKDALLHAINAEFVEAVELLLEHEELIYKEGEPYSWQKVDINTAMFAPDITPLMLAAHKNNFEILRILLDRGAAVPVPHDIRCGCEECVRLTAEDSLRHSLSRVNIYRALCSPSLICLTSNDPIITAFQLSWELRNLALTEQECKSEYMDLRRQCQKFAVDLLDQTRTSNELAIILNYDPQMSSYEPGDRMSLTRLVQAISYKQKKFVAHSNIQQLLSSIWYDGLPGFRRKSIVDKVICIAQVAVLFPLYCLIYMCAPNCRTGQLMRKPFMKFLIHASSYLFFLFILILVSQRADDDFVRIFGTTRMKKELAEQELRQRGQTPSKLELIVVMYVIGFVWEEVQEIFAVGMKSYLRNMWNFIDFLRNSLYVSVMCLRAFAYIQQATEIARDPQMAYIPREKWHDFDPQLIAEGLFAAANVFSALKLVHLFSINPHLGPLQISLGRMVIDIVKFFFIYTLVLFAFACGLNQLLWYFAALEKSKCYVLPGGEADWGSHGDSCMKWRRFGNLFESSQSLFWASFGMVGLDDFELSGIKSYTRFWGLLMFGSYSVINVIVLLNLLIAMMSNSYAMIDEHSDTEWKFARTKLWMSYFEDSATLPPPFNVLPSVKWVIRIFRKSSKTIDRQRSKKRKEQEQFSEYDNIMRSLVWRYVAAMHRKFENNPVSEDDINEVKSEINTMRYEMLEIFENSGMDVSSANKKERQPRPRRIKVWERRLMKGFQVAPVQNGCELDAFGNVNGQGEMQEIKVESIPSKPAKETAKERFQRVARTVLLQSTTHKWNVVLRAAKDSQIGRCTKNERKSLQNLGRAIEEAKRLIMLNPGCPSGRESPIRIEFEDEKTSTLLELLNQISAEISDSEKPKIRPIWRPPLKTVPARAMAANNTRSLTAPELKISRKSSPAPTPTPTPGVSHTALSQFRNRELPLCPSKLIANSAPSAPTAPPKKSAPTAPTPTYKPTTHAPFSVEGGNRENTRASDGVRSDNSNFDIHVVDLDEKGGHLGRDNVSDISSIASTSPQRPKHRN
ASSAY_METHOD_TEXT: Whole cell patch clamp of TRPL channels expressed in S2 cells
Assay type: cell-based
RECORDED_CONDITIONS: Table 1; TRPL expressed in S2 cells
PARAMETER_MEASURED: TRPL Activation/Inhibition

Asked: Give TRPL Activation/Inhibition for `C=CCc1ccc(O)c(OC)c1` tested on Drosophila TRPL channel (Drosophila melanogaster, UniProt P48994).
Given back: Inhibition

Asked: Give TRPL Activation/Inhibition for CC1CCC(C(C)C)C(O)C1 (stereo not drawn) tested on Drosophila TRPL channel (Drosophila melanogaster, UniProt P48994).
Given back: Inhibition

Asked: Give TRPL Activation/Inhibition for CC12CCC(CC1=O)C2(C)C (stereo not drawn) tested on Drosophila TRPL channel (Drosophila melanogaster, UniProt P48994).
Given back: Activation

Asked: Give TRPL Activation/Inhibition for `O=C/C=C/c1ccccc1` tested on Drosophila TRPL channel (Drosophila melanogaster, UniProt P48994).
Given back: Inhibition

Asked: Give TRPL Activation/Inhibition for `Cc1ccc(C(C)C)cc1O` tested on Drosophila TRPL channel (Drosophila melanogaster, UniProt P48994).
Given back: Inhibition

Asked: Give TRPL Activation/Inhibition for `Cc1ccc(C(C)C)c(O)c1` tested on Drosophila TRPL channel (Drosophila melanogaster, UniProt P48994).
Given back: Inhibition

Asked: Give TRPL Activation/Inhibition for CC1(C)C2CCC1(C)C(O)C2 (stereo not drawn) tested on Drosophila TRPL channel (Drosophila melanogaster, UniProt P48994).
Given back: Activation

// below: TRPL Activation/Inhibition requested for another molecule
Asked: Give TRPL Activation/Inhibition for C=C(C)C1CC=C(C)C(O)C1 (mixture of isomers) tested on Drosophila TRPL channel (Drosophila melanogaster, UniProt P48994).
Given back: Inhibition
